Biological target: Cytochrome P450 2C19 (Homo sapiens, UniProt P33261); also: in other assays of this panel Not Active means under 50% inhibition at 10 µM
Sequence (P33261 whole entry): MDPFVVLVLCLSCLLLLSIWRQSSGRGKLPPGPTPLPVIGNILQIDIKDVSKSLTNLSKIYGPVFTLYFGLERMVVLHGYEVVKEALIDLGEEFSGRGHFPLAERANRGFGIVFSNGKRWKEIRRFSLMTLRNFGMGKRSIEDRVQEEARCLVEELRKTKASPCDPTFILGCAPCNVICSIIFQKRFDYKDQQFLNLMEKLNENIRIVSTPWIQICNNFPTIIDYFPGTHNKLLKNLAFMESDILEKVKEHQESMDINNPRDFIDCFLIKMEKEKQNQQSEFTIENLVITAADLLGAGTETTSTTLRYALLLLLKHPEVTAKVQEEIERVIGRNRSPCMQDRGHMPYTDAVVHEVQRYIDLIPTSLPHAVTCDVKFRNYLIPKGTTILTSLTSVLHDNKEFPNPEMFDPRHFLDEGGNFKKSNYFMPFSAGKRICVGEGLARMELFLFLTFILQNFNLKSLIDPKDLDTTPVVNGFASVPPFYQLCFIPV
Details: bti-tn-5b1-4
measure: IC50

The cases that follow already have their IC50 on record.
>>> recorded_measurement("Cc1nccn1CC1CCc2c(c3ccccc3n2C)C1=O (centres undefined)")
"Not Active"
>>> recorded_measurement("COc1cc2c(c3oc(=O)c4c(c13)CCC4=O)[C@@H]1C=CO[C@@H]1O2")
"Not Active"
>>> recorded_measurement("CCOC(=O)[C@H](CCc1ccccc1)N[C@H]1CCc2ccccc2N(CC(=O)O)C1=O")
"Not Active"
>>> recorded_measurement("S=C=Nc1cccc2ccccc12 [1-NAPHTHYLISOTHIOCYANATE]")
"Not Active"
>>> recorded_measurement("CCCC(=O)Nc1ccc(OCC(O)CNC(C)C)c(C(C)=O)c1 (centres undefined)")
"Not Active"

Please state IC50 for every compound in the list that follows.
1. CCC1=C[C@@H]2CN(C1)Cc1c([nH]c3ccccc13)[C@@](C(=O)OC)(c1cc3c(cc1OC)N(C)[C@H]1[C@@](O)(C(=O)OC)[C@H](OC(C)=O)[C@]4(CC)C=CCN5CC[C@]31[C@@H]54)C2
2. CC(C)(C(=O)c1cccnc1)c1cccnc1

1. Not Active
2. Not Active

Please state IC50 for every compound in the list that follows.
1. CC(C)C[C@H](NC(=O)[C@@H](O)[C@H](N)Cc1ccccc1)C(=O)O
2. CCCN(CCC)C(=O)C(CCC(=O)O)NC(=O)c1ccccc1 (centres undefined) [PROGLUMIDE]

1. Not Active
2. Not Active

Please state IC50 for every compound in the list that follows.
1. COc1cc2c(c(OC)c1OC)-c1ccc(OC)c(=O)cc1[C@@H](NC(C)=O)CC2
2. CC1(C)O[C@@H]2C[C@H]3[C@@H]4C[C@H](F)C5=CC(=O)C=C[C@]5(C)[C@H]4[C@@H](O)C[C@]3(C)[C@]2(C(=O)CO)O1 [FLUNISOLIDE]
3. CC(=O)OCC(=O)[C@@]1(O)CC[C@H]2[C@@H]3CCC4=CC(=O)CC[C@]4(C)[C@H]3C(=O)C[C@@]21C [CORTISONE ACETATE]
4. CCCC(CCC)C(=O)O
5. CCN(CC)CCOC(=O)c1ccc(N)cc1
6. O=C1CCC(N2C(=O)c3ccccc3C2=O)C(=O)N1 (centres undefined) [THALIDOMIDE]

Not Active
Not Active
Not Active
Not Active
Not Active
Not Active

Please state IC50 for every compound in the list that follows.
1. CN(C)c1ccc(C(=C2C=CC(=[N+](C)C)C=C2)c2ccc(N(C)C)cc2)cc1.[Cl-]
2. CCN1CC(CCN2CCOCC2)C(c2ccccc2)(c2ccccc2)C1=O (centres undefined)
3. Cc1ccc(S(=O)(=O)NC(=O)NN2CC3CCCC3C2)cc1 (centres undefined) [GLICLAZIDE]
4. COP(=O)(OC)OC=C(Cl)Cl

Not Active
Not Active
Not Active
Not Active

###

Give measured pIC50 for each item. Keep answers brief.
Molecular target: Glucocorticoid receptor (Homo sapiens); also: in other assays of this panel Not Active means under 50% inhibition at 10 µM
Sequence (P04150 whole entry): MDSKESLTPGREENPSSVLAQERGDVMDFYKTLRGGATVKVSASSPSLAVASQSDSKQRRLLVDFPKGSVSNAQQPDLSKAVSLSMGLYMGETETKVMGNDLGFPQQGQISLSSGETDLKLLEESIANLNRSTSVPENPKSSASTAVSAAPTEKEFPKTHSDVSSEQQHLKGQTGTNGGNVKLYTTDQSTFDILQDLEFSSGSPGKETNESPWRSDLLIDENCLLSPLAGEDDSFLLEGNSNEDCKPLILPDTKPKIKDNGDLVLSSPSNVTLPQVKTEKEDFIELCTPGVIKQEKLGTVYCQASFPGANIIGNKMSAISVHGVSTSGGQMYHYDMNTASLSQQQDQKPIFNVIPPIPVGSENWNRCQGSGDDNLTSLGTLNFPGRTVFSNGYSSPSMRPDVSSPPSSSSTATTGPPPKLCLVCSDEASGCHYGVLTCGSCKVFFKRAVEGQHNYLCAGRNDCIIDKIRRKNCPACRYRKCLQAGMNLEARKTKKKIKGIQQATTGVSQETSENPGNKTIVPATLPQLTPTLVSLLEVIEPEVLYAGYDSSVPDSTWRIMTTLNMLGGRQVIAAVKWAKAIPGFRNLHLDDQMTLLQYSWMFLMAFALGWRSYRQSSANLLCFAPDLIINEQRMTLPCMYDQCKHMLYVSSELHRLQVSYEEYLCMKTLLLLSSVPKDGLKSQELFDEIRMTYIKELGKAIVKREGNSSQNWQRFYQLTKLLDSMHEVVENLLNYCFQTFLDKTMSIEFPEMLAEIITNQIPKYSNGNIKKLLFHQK
Assay: biochemical
Answers are plain numbers, as −log10 of the molar value.

Please state pIC50 for every compound in the list that follows.
1. S=C=Nc1cccc2ccccc12 [1-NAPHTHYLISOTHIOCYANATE]
2. C[C@]12CC[C@@H]3c4ccc(OC(=O)c5ccccc5)cc4CC[C@H]3[C@@H]1CC[C@@H]2O [ESTRADIOL BENZOATE]
3. CC1(C)O[C@@H]2C[C@H]3[C@@H]4C[C@H](F)C5=CC(=O)C=C[C@]5(C)[C@H]4[C@@H](O)C[C@]3(C)[C@]2(C(=O)CO)O1 [FLUNISOLIDE]
4. C#C[C@]1(OC(C)=O)CC[C@H]2[C@@H]3CCC4=CC(=O)CC[C@@H]4[C@H]3CC[C@@]21C [NORETHINDRONE ACETATE]
5. CC1(C)O[C@@H]2C[C@H]3[C@@H]4C[C@H](F)C5=CC(=O)C=C[C@]5(C)[C@@]4(F)[C@@H](O)C[C@]3(C)[C@]2(C(=O)CO)O1 [FLUOCINOLONE ACETONIDE]
6. CC1(C)O[C@@H]2C[C@H]3[C@@H]4C[C@H](F)C5=CC(=O)CC[C@]5(C)[C@H]4[C@@H](O)C[C@]3(C)[C@]2(C(=O)CO)O1 [FLURANDRENOLIDE]

1: 4.81; 2: 5.29; 3: 8.27; 4: 6.19; 5: 8.50; 6: 8.35

###

Assay: DRUGMATRIX: Potassium Channel [KATP] radioligand binding (ligand: [3H] Glyburide)
Format: cell membranes, Membrane
Details: hit-t15; Not Active = under 50% inhibition at 10 µM
measure: IC50

>>> recorded_measurement("C[C@@H](N)[C@H]1CC[C@H](C(=O)Nc2ccncc2)CC1")
"Not Active"
>>> recorded_measurement("C[C@@]12C(=O)OC(=O)[C@]1(C)[C@H]1CC[C@@H]2O1")
"Not Active"
>>> recorded_measurement("C#C[C@]1(OC(C)=O)CC[C@H]2[C@@H]3CCC4=CC(=O)CC[C@@H]4[C@H]3CC[C@@]21C [NORETHINDRONE ACETATE]")
"Not Active"
>>> recorded_measurement("CC1(C)O[C@@H]2C[C@H]3[C@@H]4C[C@H](F)C5=CC(=O)C=C[C@]5(C)[C@@]4(F)[C@@H](O)C[C@]3(C)[C@]2(C(=O)CO)O1 [FLUOCINOLONE ACETONIDE]")
"Not Active"

Please state IC50 for every compound in the list that follows.
1. CC(C(=O)O)c1cccc(C(=O)c2ccccc2)c1 (stereo not drawn)
2. CCOC(=O)C(C)(C)Oc1ccc(Cl)cc1 [CLOFIBRATE]

1. Not Active
2. Not Active

Please state IC50 for every compound in the list that follows.
1. Cn1c(=O)c2c(ncn2CC2OCCO2)n(C)c1=O
2. C[C@]1(Cn2ccnn2)[C@H](C(=O)O)N2C(=O)C[C@H]2S1(=O)=O

1: Not Active; 2: Not Active

###

Target: UniProt:P25021
Sequence (P25021 whole entry): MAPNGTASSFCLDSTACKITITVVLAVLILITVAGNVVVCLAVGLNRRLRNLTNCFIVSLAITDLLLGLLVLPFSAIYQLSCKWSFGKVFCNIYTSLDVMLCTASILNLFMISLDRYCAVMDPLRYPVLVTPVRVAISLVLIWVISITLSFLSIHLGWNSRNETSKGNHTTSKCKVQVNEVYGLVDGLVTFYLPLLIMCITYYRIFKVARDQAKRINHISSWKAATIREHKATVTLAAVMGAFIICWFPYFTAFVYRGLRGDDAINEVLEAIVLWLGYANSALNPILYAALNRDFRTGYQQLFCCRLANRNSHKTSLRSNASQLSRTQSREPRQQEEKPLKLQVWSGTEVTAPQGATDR
Type: cell membranes, CHO-K1, Membrane
Details: read-out: Ki
measure: Ki (nM)
Numbers only, in nM.

Please state Ki for every molecule in the list that follows.
1. CN1CCC(=C2c3ccccc3C=Cc3ccccc32)CC1
2. CN(C)c1ccc(C(=C2C=CC(=[N+](C)C)C=C2)c2ccc(N(C)C)cc2)cc1.[Cl-]
3. CC(=O)N1CCN(c2ccc(OCC3COC(Cn4ccnc4)(c4ccc(Cl)cc4Cl)O3)cc2)CC1 (stereo not drawn)

195
1140
21500

###

Molecular target: UniProt:P28335
Sequence (P28335 whole entry): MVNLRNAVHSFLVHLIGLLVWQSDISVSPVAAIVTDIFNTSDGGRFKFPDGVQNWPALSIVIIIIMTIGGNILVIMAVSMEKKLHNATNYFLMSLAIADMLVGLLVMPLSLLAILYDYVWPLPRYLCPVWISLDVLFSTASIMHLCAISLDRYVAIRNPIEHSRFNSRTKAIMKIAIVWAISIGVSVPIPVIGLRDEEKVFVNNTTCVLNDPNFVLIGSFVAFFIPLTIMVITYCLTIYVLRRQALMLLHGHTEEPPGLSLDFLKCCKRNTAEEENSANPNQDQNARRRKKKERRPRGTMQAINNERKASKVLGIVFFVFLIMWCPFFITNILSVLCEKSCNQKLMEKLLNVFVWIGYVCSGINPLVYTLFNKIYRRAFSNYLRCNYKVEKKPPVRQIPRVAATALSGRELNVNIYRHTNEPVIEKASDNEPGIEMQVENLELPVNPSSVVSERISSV
Experiment: DRUGMATRIX: Serotonin (5-Hydroxytryptamine) 5-HT2C radioligand binding (ligand: [3H] Mesulergine)
Format: cell membranes, CHO-K1, Membrane
Details: cho-k1; Not Active = under 50% inhibition at 10 µM
measure: IC50

>>> recorded_measurement("COCCOC(=O)C1=C(C)NC(C)=C(C(=O)OC(C)C)C1c1cccc([N+](=O)[O-])c1 (configuration not stated) [NIMODIPINE]")
"Not Active"
>>> recorded_measurement("C/C=C/C[C@@H](C)[C@@H](O)[C@H]1C(=O)N[C@@H](CC)C(=O)N(C)CC(=O)N(C)[C@@H](CC(C)C)C(=O)N[C@@H](C(C)C)C(=O)N(C)[C@@H](CC(C)C)C(=O)N[C@@H](C)C(=O)N[C@H](C)C(=O)N(C)[C@@H](CC(C)C)C(=O)N(C)[C@@H](CC(C)C)C(=O)N(C)[C@@H](C(C)C)C(=O)N1C [CYCLOSPORINE]")
"Not Active"

###

Molecular target: Sodium-dependent noradrenaline transporter (Homo sapiens)
Sequence (P23975 whole entry): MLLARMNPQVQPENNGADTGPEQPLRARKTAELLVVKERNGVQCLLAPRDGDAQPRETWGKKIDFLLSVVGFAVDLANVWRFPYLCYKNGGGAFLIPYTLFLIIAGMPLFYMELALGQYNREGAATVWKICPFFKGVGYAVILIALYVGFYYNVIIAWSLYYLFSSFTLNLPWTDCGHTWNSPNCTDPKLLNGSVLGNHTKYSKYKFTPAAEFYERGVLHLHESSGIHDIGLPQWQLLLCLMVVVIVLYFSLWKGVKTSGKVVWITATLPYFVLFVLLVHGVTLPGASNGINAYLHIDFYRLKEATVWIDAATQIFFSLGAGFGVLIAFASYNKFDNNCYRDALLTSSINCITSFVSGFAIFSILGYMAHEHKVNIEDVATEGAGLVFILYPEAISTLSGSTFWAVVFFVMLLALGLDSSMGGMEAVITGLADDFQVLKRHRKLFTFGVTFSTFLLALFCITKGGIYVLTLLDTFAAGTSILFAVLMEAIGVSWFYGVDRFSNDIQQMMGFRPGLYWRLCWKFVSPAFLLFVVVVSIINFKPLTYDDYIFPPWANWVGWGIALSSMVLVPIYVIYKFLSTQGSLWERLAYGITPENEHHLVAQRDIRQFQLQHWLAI
Assay: DRUGMATRIX: Norepinephrine Transporter radioligand binding (ligand: [125I] RTI-55)
Format: cell membranes, MDCK, Membrane
Conditions: mdck; Not Active = under 50% inhibition at 10 µM
measure: IC50

The cases that follow already have their IC50 on record.
>>> recorded_measurement("CC(=O)N[C@@H]1[C@H](Oc2c3cc4cc2Oc2ccc(cc2Cl)[C@@H](O[C@@H]2O[C@@H](CO)[C@@H](O)[C@H](O)[C@@H]2NC(C)=O)[C@@H]2NC(=O)[C@H](NC(=O)[C@@H]4NC(=O)[C@H]4NC(=O)[C@@H](Cc5ccc(c(Cl)c5)O3)NC(=O)[C@H](N)c3ccc(O)c(c3)Oc3cc(O)cc4c3)c3ccc(O)c(c3)-c3c(O[C@H]4O[C@H](CO)[C@@H](O)[C@@H](O)[C@@H]4O)cc(O)cc3[C@@H](C(=O)O)NC2=O)O[C@@H](CO)[C@@H](O)[C@@H]1O")
"Not Active"
>>> recorded_measurement("CN1C(=O)COc2c(C(=O)NC3CN4CCC3CC4)cc(Cl)cc21 (stereo not given)")
"Not Active"
>>> recorded_measurement("COc1ccc2c(c1)c(CC(=O)O)c(C)n2C(=O)c1ccc(Cl)cc1")
"Not Active"
>>> recorded_measurement("C#C[C@]1(OC(C)=O)CC[C@H]2[C@@H]3CCC4=CC(=O)CC[C@@H]4[C@H]3CC[C@@]21C [NORETHINDRONE ACETATE]")
"Not Active"

Here is the next item to consider.
Return the recorded IC50 value; entry: `CN(C)/N=N/c1[nH]cnc1C(N)=O`
Not Active

Values were extracted from ChEMBL document CHEMBL1909046.
